Items are presented alongside their recorded melting point.

// solved cases for melting point follow
Cl.N[C@@H](CCC(=O)OCCCC(CO[N+](=O)[O-])O[N+](=O)[O-])C(=O)O (some centres unmarked); 90 to 94 °C
Cl.N[C@@H](CCC(=O)NCCCO[N+](=O)[O-])C(=O)O; 57 to 60 °C
Cl.N[C@@H](CCC(=O)OCc1ccc(CO[N+](=O)[O-])cc1)C(=O)O; 135 to 138 °C
Cl.N[C@@H](CCC(=O)O[C@H]1CO[C@H]2[C@@H]1OC[C@H]2O[N+](=O)[O-])C(=O)O (stereo in doubt); 160 to 162 °C

Param item = Cl.N[C@@H](CCC(=O)OCC#CCO[N+](=O)[O-])C(=O)O ; retrieve measured melting point. 107 to 110 °C
